- assayNotes: TOX21_p53_BLA_p3_viability: Viability Assessment in the Tox21 HCT-116 p53 Agonism Beta-lactamase Assay, Phase 3 (AID 2283593);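 also: cells exposed to compound for 16 h before reading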
Results filed as inconclusive are left out. Active and inactive are the calls of the source. The calls were made as follows: active = hit-call score of the fitted dose curve at least 0.9, where 1 is the maximum; inconclusive = response in the unintended direction; inactive = score below 0.9.
Use one of these outcomes when replying: active, inactive

// known answers, use as guide
INSERT INTO results (compound, classlabel) VALUES
  ('CC(C)(C)c1cc([N+](=O)[O-])cc(C(C)(C)C)c1O', 'inactive'),
  ('Clc1ccc(C(Cl)(Cl)Cl)cn1', 'inactive'),
  ('O=C1C[C@@H]2OCC=C3CN4CC[C@]56c7ccccc7N1[C@H]5[C@H]2[C@H]3C[C@H]46', 'inactive'),
  ('CC(O)(CS(=O)(=O)c1ccc(F)cc1)C(=O)Nc1ccc(C#N)c(C(F)(F)F)c1 (configuration not stated)', 'inactive'),
  ('CC(=Cc1ccccc1)[N+](=O)[O-]', 'inactive');

Can you look up the reported call for CCCCCCCCCCCCCl for me?
inactive

Can you look up the reported call for Cc1cc(Cl)ccc1OCCCC(=O)O for me?
inactive

Can you look up the reported call for Cc1cc(Cl)ccc1OC(C)C(=O)O (configuration not stated) for me?
inactive

Can you look up the reported call for CCC(C)(C#N)N=NC(C)(C#N)CC (configuration not stated) for me?
inactive

Can you look up the reported call for CCOP(=O)(OCC)OC(=CCl)c1ccc(Cl)cc1Cl for me?
inactive

Can you look up the reported call for CCOP(=S)(OCC)OP(=S)(OCC)OCC for me?
inactive

Can you look up the reported call for C=CC(=O)[O][Sn]([CH2]CCC)([CH2]CCC)[CH2]CCC for me?
active
